Value source: patent US20220112288A1

Target: T1, Rhesus macaque CD4-HIS (Acro Biosystems, Cat. CD4-C52H7) (rhesus macaque, UniProt P16003 26-390)
T1 construct: Bought reagent; also called Rhesus CD4; rhesus CD4-HIS; not shown: His tag
T1 sequence (P16003 26-390 limits assumed): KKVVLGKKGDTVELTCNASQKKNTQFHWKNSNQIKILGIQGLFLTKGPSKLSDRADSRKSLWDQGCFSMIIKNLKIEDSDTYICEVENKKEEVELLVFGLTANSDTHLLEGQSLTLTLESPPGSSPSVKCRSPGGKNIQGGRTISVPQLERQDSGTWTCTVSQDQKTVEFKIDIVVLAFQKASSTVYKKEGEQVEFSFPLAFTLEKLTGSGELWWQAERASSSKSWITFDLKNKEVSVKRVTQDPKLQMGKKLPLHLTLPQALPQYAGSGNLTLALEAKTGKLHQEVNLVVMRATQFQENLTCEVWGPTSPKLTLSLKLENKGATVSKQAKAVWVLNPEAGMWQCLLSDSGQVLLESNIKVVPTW
Assay: BLI (Octet Red384); Ab on anti-mouse Fc (AMC) sensor; rhesus CD4-HIS 100/50/25 nM; global 1:1 fit;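 further: antibodies loaded at 10 µg/mL, an unrelated mouse-derived antibody served as internal reference, curves fit over association and dissociation phases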
Recorded measurements of Kd, one per entry
Express your answer in nM, writing the number without its unit.

Answered examples (2):
1. 75110_14I16A (antibody, V domains shown, Tested as antibody purified from AlivaMab Mouse hybridoma supernatant (human variable domains, kappa; mouse Fc, captured on anti-mouse IgG Fc sensors); also called ADS75110 purified AMM Ab) VH: QVQLQESGPGLVKPSETLSLTCTVSNGSISSYYWSWIRQSAGKGLEWIGRIYTSGSTNYNPSLKSRVTMLVDTSKNQFSLKLSSVTAADTAVYYCARDREDYYYYGMDVWGQGTTVTVSS VL: DIQMTQSPSSLSASVGDRVTITCQASHDISNYLNWYQQKPGKAPKLLLYYASNLETGVPSRFSGSGSGTDFTFTITSLQPEDIGTYSCQQYDNLPLTFGGGTKVEIK : 14
2. 75110_10N21A (antibody, V domains shown, Tested as antibody purified from AlivaMab Mouse hybridoma supernatant (human variable domains, kappa; mouse Fc, captured on anti-mouse IgG Fc sensors); also called ADS75110 purified AMM Ab) VH: EVQLVESGGGLVQPGGSLRLSCAASGFTFSSYDMHWVRQVTGKGLEWVSTIGTAGDTYYPGSVKGRFTISRENAKNSLYLQMNSLRAGDTAVYYCARGGYYYYGMDVWGQGTTVTVSS VL: EIVLTQSPGTLSLSPGERATLSCRASQSFISSYLAWYQQKPGQAPRLLIYGASSRATGIPDRFSGSGSGTDFTLTISRLDPEDFAVYYCQQSGNSPFTFGPGTKVDVK : 8.2

Now for the binder whose Kd we want.
Lab book: Kd of 75110_06G04A (antibody, V domains shown, Tested as antibody purified from AlivaMab Mouse hybridoma supernatant (human variable domains, kappa; mouse Fc, captured on anti-mouse IgG Fc sensors); also called ADS75110 purified AMM Ab) VH: QVQLLESGPGLVKPSETLSLTCTVSGGSISSYYWSWIRQPAGKGLEWIGRIYISGSTNYNPSLKSRVTMSIDTSENQFSLNLSSVTAADTAVYYCARELERPYYYGMDVWGQGTTVTVSS VL: DIQMTQSPSSLSASVGDRVTITCQASQDISNYLNWYQQKPGKAPKLLIYNASTLETGVPSRFSGSGSGTDFTFTISSLQPEDIATYYCQQYDNLPLTFGGGTKVEFK noted as 2.1
